meta.source: patent US9388210B2

- measurement target: rat α1β2γ2L type GABAA receptors (Rattus norvegicus (Rat), UniProt P62813+P63138, INS375LLRMFSFK)
- protocol summary: Oocyte electrophysiology: potentiation of 2 μM GABA chloride currents and direct gating, Xenopus laevis oocytes
- Format: cell-based
- settings: 10 μM compound in the absence of GABA; ± SEM
test readout: (gating) 10 μM: ratio of compound only current/2 μM GABA current
Output: the number by itself.

Recall and state the measured (gating) 10 μM: ratio of compound only current/2 μM GABA current for CO[C@H]1C[C@]2(C)/C(=C\C#N)CC[C@H]2[C@@H]2CC[C@H]3C[C@H](O)CC[C@]3(C)[C@H]21 [Compound 17a] . 0.06

Recall and state the measured (gating) 10 μM: ratio of compound only current/2 μM GABA current for C[C@]12CC[C@@H](O)C[C@H]1CC[C@@H]1[C@@H]2CC[C@]2(C)/C(=C\C#N)CC[C@@H]12 [Compound 15a] . 0.03

Recall and state the measured (gating) 10 μM: ratio of compound only current/2 μM GABA current for C[C@]12CC[C@@H](O)C[C@@H]1CC[C@@H]1[C@@H]2CC[C@]2(C)/C(=C\C#N)CC[C@@H]12 [Compound 14a] . 0.29

Recall and state the measured (gating) 10 μM: ratio of compound only current/2 μM GABA current for CO[C@H]1C[C@@]2(C)[C@@H](CC[C@@H]3[C@@H]2CC[C@]2(C)/C(=C/C#N)CC[C@@H]32)C[C@@H]1O [Compound 16b] . 0.03
